Target: FGFR3 (UniProt P22607)
Sequence (P22607 whole entry, looked up): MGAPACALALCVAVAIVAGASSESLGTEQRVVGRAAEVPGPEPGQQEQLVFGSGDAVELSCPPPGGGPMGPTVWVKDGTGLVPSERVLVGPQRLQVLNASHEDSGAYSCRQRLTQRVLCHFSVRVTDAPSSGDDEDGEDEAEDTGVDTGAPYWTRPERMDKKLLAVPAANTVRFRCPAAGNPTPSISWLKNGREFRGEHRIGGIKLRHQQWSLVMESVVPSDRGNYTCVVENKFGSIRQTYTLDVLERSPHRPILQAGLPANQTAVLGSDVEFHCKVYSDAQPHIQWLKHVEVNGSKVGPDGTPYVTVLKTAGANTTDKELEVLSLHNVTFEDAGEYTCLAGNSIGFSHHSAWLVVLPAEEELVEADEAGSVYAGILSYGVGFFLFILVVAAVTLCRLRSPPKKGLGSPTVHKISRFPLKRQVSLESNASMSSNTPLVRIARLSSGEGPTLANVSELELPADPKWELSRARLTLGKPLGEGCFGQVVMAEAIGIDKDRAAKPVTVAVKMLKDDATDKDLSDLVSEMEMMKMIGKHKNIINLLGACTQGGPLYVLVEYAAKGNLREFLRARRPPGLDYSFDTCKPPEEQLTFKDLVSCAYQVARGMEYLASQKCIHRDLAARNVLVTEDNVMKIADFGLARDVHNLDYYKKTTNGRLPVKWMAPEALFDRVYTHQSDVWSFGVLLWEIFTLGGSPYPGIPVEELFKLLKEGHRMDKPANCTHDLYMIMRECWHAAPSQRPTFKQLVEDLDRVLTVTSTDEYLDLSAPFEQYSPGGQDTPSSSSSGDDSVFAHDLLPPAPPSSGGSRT
Assay: phosphorylation enrichment, bacterial display (enrichment ratio); higher = better substrate or ligand; peptides without Tyr show the background
Examples of sequences with documented phosphorylation enrichment follow.
Reply with just the number.

1) VFAADYFKLLG [ROR2_Y645_YF]	4.37
2) LYSDHYSPSGR [TMPRSS12_Y23]	0.958

Now take the following sequence into account.
In plain terms, DDPRRYQKYGY [OAS1_Y362] has a documented phosphorylation enrichment of 0.446

====

Target: MERTK (UniProt Q12866)
Sequence (Q12866 whole entry, looked up): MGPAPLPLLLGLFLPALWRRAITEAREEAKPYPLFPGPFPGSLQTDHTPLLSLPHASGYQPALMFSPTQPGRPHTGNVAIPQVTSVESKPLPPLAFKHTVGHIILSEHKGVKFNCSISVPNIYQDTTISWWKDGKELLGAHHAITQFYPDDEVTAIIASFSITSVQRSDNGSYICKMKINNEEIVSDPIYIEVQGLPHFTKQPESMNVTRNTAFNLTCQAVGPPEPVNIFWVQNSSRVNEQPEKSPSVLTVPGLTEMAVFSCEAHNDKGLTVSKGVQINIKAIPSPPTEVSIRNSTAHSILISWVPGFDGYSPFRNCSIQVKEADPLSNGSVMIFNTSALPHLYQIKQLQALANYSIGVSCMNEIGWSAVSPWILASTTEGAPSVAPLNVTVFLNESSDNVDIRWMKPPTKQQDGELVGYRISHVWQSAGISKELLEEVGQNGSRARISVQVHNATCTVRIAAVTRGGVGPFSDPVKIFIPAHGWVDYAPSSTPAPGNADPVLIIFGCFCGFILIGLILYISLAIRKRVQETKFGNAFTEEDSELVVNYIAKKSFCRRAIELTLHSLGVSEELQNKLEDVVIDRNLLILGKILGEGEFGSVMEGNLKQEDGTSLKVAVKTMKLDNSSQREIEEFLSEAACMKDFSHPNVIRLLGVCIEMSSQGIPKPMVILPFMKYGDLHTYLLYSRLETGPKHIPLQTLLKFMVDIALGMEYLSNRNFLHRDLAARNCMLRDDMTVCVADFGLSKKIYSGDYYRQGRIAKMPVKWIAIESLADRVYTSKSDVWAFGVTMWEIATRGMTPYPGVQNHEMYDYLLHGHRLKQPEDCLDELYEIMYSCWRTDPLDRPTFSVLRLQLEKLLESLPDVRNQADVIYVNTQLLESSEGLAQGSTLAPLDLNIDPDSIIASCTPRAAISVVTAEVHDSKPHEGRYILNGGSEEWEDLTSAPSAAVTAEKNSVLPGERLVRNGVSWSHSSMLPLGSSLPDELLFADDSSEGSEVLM
Experiment: phosphorylation enrichment, bacterial display (enrichment ratio); higher = better substrate or ligand; peptides without Tyr show the background
The entries below come with measured phosphorylation enrichment values attached.

The following sequences have reported results that may help.
1) QHVPDYRQNGY [PCDHGA1_Y890_V894G]	0.493
2) MPPHIYAITDT [MYH9_Y151]	4.75
3) VFGVSYDEYRY [CFTR_Y512_I507V]	0.477
4) AVISVYDLVAF [PSEN1_Y256_V261F]	8.85
5) INMKKYCKKDF [NTN1_Y490_YF]	0.659
6) SLLTDYSPQLQ [OTC_Y345]	0.381

We next turn to a different sequence, shown below.
Bench note, MERTK (UniProt Q12866): entry PSARTYCYKQE [KLHDC9_Y175] , its phosphorylation enrichment = 0.736

====

Molecular target: Fyn (UniProt P06241)
Sequence (P06241 whole entry, looked up): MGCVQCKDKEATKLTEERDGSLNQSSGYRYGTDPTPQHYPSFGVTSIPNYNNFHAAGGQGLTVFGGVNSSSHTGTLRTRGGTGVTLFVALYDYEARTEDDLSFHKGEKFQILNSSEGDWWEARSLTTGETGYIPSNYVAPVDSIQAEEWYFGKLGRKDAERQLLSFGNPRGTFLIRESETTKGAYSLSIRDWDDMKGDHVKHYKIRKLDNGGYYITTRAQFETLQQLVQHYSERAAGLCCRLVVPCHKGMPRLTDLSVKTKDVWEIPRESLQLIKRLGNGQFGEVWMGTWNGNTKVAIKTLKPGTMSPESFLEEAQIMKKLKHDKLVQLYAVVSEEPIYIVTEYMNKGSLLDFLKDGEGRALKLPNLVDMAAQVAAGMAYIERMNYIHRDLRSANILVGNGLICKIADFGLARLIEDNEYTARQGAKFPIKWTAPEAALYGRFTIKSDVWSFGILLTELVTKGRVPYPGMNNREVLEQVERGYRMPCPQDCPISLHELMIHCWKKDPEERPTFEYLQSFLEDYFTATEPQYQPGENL
Assay: phosphorylation enrichment, bacterial display (enrichment ratio); higher = better substrate or ligand; peptides without Tyr show the background
quantity-measured: phosphorylation enrichment
Lab note: jot down the number only; don't add units.

Solved cases below.
1. SSYDTYHLSRE [KIR3DL2_Y253_I252T]	6.54
2. GEIQEYGAPLD [ABCC1_Y1508_S1512L]	0.514
3. NAPNSYGRRPI [CDKN2A_Y44]	0.678
4. RFVTRSIFNRE [HLA-DQB1_Y62_Y62S_YF]	0.498
5. AAILGYCHGEA [XPC_Y669_R671H]	0.535

Value of measured phosphorylation enrichment for the entry LGSNGYKKLLK [SEPSECS_Y334] : 0.879

Item: LSQDVYEEDSY [RET_Y900_R897Q] | phosphorylation enrichment: 0.782

Query TTKAKYKTPTY [PLD2_Y573] yields phosphorylation enrichment of 0.393

// recorded phosphorylation enrichment for TSESSYYKSLN [NGEF_Y288_A286S] : 0.469

Form: sequence = ESAAIYNPVIF [RHO_Y301_K296E_YF] ; phosphorylation enrichment = 8.03

Record GFDHSYFFIAT [ESD_Y262_YF] . Reported phosphorylation enrichment: 0.525

====

Target: FGFR3 (UniProt P22607)
Test: phosphorylation enrichment, bacterial display (enrichment ratio); higher = better substrate or ligand; peptides without Tyr show the background
quantity-measured: phosphorylation enrichment
Could you respond with only the numeric value?

1. STEVIYQPRRK [STK11_Y36]	0.539
2. SQKRKYIEIDS [SDAD1_Y580]	0.376
3. CNRADYSKLAP [GNE_Y22]	0.61

# evaluate next
The measured phosphorylation enrichment that VCHELYNAIRD [PBRM1_Y54_T56A] showed for FGFR3 (UniProt P22607) is 0.702

====

Target: FGFR3 (UniProt P22607)
Test: phosphorylation enrichment, bacterial display (enrichment ratio); higher = better substrate or ligand; peptides without Tyr show the background
Reported phosphorylation enrichment values are given for each entry in this list.
The reply should be a number, written without any unit.

Reference set, count: 6
1) MALDIYRASFF [ALK_Y1278_R1275L_YF]	0.767
2) LGSNGYKKLLK [SEPSECS_Y334]	0.636
3) HNELFYEEAEH [VANGL1_Y345_YF]	0.964
4) TSSGGYRRTPS [ABI1_Y333]	0.428
5) NVADHYGVYKP [ATP6V0D2_Y271]	0.451
6) SGLDSYVRSLP [TRAPPC1_Y133_R129G]	0.48

Record KIEGVYARDET [RPL35A_Y34] , field phosphorylation enrichment: 0.55

Recorded phosphorylation enrichment (sequence RTVPLYESPRK [DDB1_Y718] ): 0.577

====

Target: MERTK (UniProt Q12866)
Test: phosphorylation enrichment, bacterial display (enrichment ratio); higher = better substrate or ligand; peptides without Tyr show the background
Decide by phosphorylation enrichment: equal to or exceeding 0.5 means fulfilled, less means not fulfilled.

1. PVDVAYRRGYF [PLEC_Y2967]	not fulfilled
2. EPYKVYRIVPE [IRF8_Y110]	not fulfilled
3. DDFNLYINVKL [MTHFD1_Y52_S49F]	not fulfilled
4. TTSQLYDAMPI [PDPK1_Y9_V12M]	fulfilled
5. DKPENYRRLDI [VHL_Y175_V170D]	not fulfilled
6. QDIMAYRGREV [BCL6_Y157]	fulfilled
7. VHVEVYDRPSP	fulfilled
8. KKHIPYKEHKS [CSNK1G1_Y205_R206K]	fulfilled

Inquiry: # bool: phosphorylation enrichment of QFLMKYVWSAS [ABCD1_Y337] >= 0.5
Reply text: fulfilled

Inquiry: Check if phosphorylation enrichment >= 0.5 (inclusive). Item: TDKLFYIYTSG [SLC27A4_Y243]
Reply text: fulfilled

Inquiry: Determine whether measured phosphorylation enrichment meets or exceeds 0.5 for MAALSYVSEIG [BPIFB2_Y36_K31M]
Reply text: not fulfilled

Inquiry: In plain terms: is recorded phosphorylation enrichment at least 0.5 for EVASVYESYQP [MAVS_Y92_Q93E] ?
Reply text: fulfilled

Inquiry: Hello, I need to know if RMDGKYACSFT [FLNB_Y704_T703K_YF] has measured phosphorylation enrichment not below 0.5. Thanks!
Reply text: fulfilled

Inquiry: Reported phosphorylation enrichment at or above 0.5? SIGLGYHKDLQ [NF1_Y1169]
Reply text: not fulfilled

Inquiry: Please tell me: is the sequence AKIDGYITSFR at or over 0.5 in terms of phosphorylation enrichment?
Reply text: not fulfilled

====

Biological target: c-Src SH2;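 also: peptide library displayed on the E. coli surface as eCPX fusions, selected cells deep-sequenced, score is each peptide's frequency after selection divided by its frequency in the input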
Assay: SH2 binding enrichment of the phosphorylated peptide, bacterial display (enrichment ratio); higher = better substrate or ligand; peptides without Tyr show the background
Reported SH2 binding enrichment values follow for various sequences
Provide a numeric answer; units are not to be included.

1. LLLLFCVVRYC [MPZ_Y177_Y177C]	1.41
2. SGIYQYSIAKF [FOXL2_Y83_I84S]	2.06

Looking up EKEQNYDLTEV [ECD_Y448] , I found its SH2 binding enrichment recorded as 0.704

The measured SH2 binding enrichment associated with DNACQYMLTDR [MYH7_Y164_Y162C] reads 0.814

====

Entries and their measured phosphorylation enrichment follow.
Target: EPHB1 (UniProt P54762)
Sequence (P54762 whole entry, looked up): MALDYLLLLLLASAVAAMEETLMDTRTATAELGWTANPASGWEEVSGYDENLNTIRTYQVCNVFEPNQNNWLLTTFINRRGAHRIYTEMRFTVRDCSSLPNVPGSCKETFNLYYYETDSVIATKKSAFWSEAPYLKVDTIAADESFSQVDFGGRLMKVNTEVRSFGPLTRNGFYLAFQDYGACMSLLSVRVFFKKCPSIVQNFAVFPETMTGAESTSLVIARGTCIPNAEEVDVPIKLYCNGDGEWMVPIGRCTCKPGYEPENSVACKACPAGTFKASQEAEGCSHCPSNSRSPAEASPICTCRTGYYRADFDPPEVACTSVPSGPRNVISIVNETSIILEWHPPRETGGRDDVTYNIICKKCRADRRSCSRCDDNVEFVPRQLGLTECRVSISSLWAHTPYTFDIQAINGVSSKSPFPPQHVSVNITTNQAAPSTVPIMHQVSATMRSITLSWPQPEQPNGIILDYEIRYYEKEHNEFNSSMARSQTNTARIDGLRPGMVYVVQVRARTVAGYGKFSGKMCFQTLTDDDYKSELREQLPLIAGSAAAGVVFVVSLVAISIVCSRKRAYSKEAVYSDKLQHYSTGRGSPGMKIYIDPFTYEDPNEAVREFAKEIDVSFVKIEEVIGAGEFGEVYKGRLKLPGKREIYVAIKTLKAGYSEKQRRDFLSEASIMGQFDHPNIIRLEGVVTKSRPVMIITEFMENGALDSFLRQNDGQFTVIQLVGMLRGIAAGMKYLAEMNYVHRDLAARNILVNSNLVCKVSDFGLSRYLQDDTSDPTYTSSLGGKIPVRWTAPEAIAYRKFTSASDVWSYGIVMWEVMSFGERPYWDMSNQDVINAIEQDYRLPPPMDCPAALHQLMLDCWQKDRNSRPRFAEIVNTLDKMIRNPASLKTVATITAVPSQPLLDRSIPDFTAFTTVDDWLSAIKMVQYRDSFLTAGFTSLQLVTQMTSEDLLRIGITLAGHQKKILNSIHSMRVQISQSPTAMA
Assay: phosphorylation enrichment, bacterial display (enrichment ratio); higher = better substrate or ligand; peptides without Tyr show the background
Form rule: numeric answer, no unit written next to it.

Examples with their reported phosphorylation enrichment follow.
1) FTGDIYSSSNL [LZTR1_Y141_N143S_YF]	0.782
2) LGMSQYFRLFN [CPT2_Y217_D213G]	0.601
3) LRFEVYGGENE [STOX1_Y610_YF]	0.56

Next, consider the following sequence.
// recorded phosphorylation enrichment for TDKLFYIYTSG [SLC27A4_Y243] : 0.701

====

// values below are reported phosphorylation enrichment
Target: FGFR3 (UniProt P22607)
Assay: phosphorylation enrichment, bacterial display (enrichment ratio); higher = better substrate or ligand; peptides without Tyr show the background
# respond with the number and nothing more

Please review the entries below; each comes with its answer.
1) NVFGNYNNQSS [HNRNPA1_Y318_D314V]	0.546
2) SGVNKYSTAFG [GJB3_Y16]	0.454
3) EQQNMYRLKVL [ABCC6_Y372]	0.545
4) FRDMDYRSFPR [RBM10_Y41_YF]	0.482
5) MPQNEYIELHC [NSA2_Y6_R11C]	2.58
6) TVDASYFGGRG [ANTXR2_Y380_YF]	0.394
7) GEHSIYSTVNN [CD55_Y266_C267S]	0.52

Moving on to another sequence below.
The sequence YETSHYPASPD [CTNND2_Y1217] showed phosphorylation enrichment equal to 0.626

====

Reported phosphorylation enrichment values for a set of sequences
Tested on: AncSZ
Experiment: phosphorylation enrichment, bacterial display (enrichment ratio); higher = better substrate or ligand; peptides without Tyr show the background
Answer with a number only.

1. EFNLMYDGTKE [IRF6_Y97]	0.993

Switching to the query record.
The measured phosphorylation enrichment associated with RLGDLYEEEMR [VIM_Y150] reads 0.72

====

Molecular target: Fyn (UniProt P06241)
Experiment: phosphorylation enrichment, bacterial display (enrichment ratio); higher = better substrate or ligand; peptides without Tyr show the background
Classify as follows. Reported phosphorylation enrichment greater than or equal to 0.4: satisfied. Reported phosphorylation enrichment below: not satisfied.

1) VFPIDYFFPPQ [AR_Y552_L548F_YF]	satisfied
2) NVFGNYNNQSS [HNRNPA1_Y318_D314V]	not satisfied
3) FVPAAYVKKLD [SPTAN1_Y1020]	satisfied
4) TGDRPYVCPFD [YY1_Y383]	satisfied

Lab note: next sequence to report on.
Inquiry: Is phosphorylation enrichment for HSLRDYKEALM [ADA2_Y337_H335R] at or above 0.4?
Reply text: not satisfied
